# Test system: KRas-mediated Phosphorylation of ERK in AsPC-1 cells
# run_description: HTRF pERK assay, AsPC-1 cells
# Assay type: cell-based
# test_context: Homo sapiens, ASPC1, 3 hrs compound incubation, read-out: Inhibition (HTRF IC50 nM) of KRas-mediated Phosphorylation of ERK, AsPC-1
Output t for records whose IC50 is lower than 6000 nM, f for records at or above 6000 nM.

Reference set (3 entries):
• C[C@H](Oc1nc(-c2cc(C3(C)CCCc4sc(N)c(C#N)c43)sn2)cc(N2CCCC3(CNS(=O)(=O)N3)C2)n1)[C@@H]1CCCN1C (some centres unmarked) = t
• C[C@H](Oc1nc(-c2cc(C3(C)CCCc4sc(N)c(C#N)c43)sn2)cc(N2C[C@H]3CC[C@@H](C2)N3)n1)[C@@H]1CCCN1C (some centres unmarked) = t
• C[C@H](Oc1nc(-c2cc(C3(C)CCCc4sc(N)c(C#N)c43)sn2)cc(N2C[C@@H]3C[C@H](C2)[C@H](O)C3)n1)[C@@H]1CCCN1C (some centres unmarked) = f

Input line: Determine whether this molecule shows IC50 lower than 6000 nM (ties excluded): C[C@H](Oc1nc(-c2noc(C3(C)CCCc4sc(N)c(C#N)c43)n2)cc(N2CCCn3nc(C(=O)N(C)C)cc3C2)n1)[C@@H]1CCCN1C (some centres unmarked)
Output line: f

Input line: Check if IC50 falls below 6000 nM for C[C@H](Oc1nc(-c2noc(C3(C)CCCc4sc(N)c(C#N)c43)n2)cc(N2CCC[C@@](C)(O)C2)n1)[C@@H]1CCCN1C (some centres unmarked) .
Output line: t

Input line: Could you please tell me whether IC50 recorded for C[C@H](Oc1nc(-c2noc(C3(C)CCCc4sc(N)c(C#N)c43)n2)cc(N2CCOCC(C)(O)C2)n1)[C@@H]1CCCN1C (some centres unmarked) is less than 6000 nM?
Output line: t

###

# study_system: KRas^G12R (Homo sapiens, UniProt P01116, G12R)
# Construct: corresponding to amino acids 1-169, produced at Accelegan Inc; biotin (biotinylated); purchased Accelegan Inc
# Sequence (P01116 1-169 isoform P01116-2 G12R): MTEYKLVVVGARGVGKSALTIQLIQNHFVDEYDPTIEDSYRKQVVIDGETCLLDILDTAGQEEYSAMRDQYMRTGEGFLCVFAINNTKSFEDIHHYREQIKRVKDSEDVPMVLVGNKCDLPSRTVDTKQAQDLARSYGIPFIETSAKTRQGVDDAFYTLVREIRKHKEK
# run_description: KRas Binding Assay (TR-FRET displacement), KRas G12R
# test_context: TR-FRET tracer displacement
Could you please report measured IC50 for the items listed next?
Give bare numbers, in nM.

Take a look at these entries with their results.
* C[C@H](Oc1nc(-c2noc(C3(C)CCCc4sc(N)c(C#N)c43)n2)cc(N2C[C@H]3CC[C@@H](C2)N3)n1)[C@@H]1CCCN1C (stereo partly shown) | 728
* C[C@H](Oc1nc(-c2noc(C3(C)CCCc4sc(N)c(C#N)c43)n2)cc(N2CCCC3(CNS(=O)(=O)N3)C2)n1)[C@@H]1CCCN1C (stereo partly shown) | 4
* C[C@H](Oc1nc(-c2cc(C3(C)CCCc4sc(N)c(C#N)c43)sn2)cc(N2C[C@H]3CC[C@@H](C2)N3)n1)[C@@H]1CCCN1C (stereo partly shown) | 1340
* C[C@H](Oc1nc(-c2noc(C3(C)CCCc4sc(N)c(C#N)c43)n2)cc(N2CCC[C@@](C)(O)C2)n1)[C@@H]1CCCN1C (stereo partly shown) | 28
* C[C@H](Oc1nc(-c2noc(C3(C)CCCc4sc(N)c(C#N)c43)n2)cc(N2C[C@@H]3C[C@H](C2)[C@H](O)C3)n1)[C@@H]1CCCN1C (stereo partly shown) | 38

Each compound below has a reported value. Please supply its IC50.
1. C[C@H](Oc1nc(-c2cc(C3(C)CCCc4sc(N)c(C#N)c43)sn2)cc(N2CCCn3nc(C(=O)N(C)C)cc3C2)n1)[C@@H]1CCCN1C (stereo partly shown)
2. C[C@H](Oc1nc(-c2noc(C3(C)CCCc4sc(N)c(C#N)c43)n2)cc(N2CCCC3(C2)NC(=O)NC3=O)n1)[C@@H]1CCCN1C (stereo partly shown)

Output line:
1: 156; 2: 4

Please supply IC50 for each of the following items, keeping them in order.
1. C[C@H](Oc1nc(-c2cc(C3(C)CCCc4sc(N)c(C#N)c43)sn2)cc(N2CCCC3(C2)NC(=O)NC3=O)n1)[C@@H]1CCCN1C (stereo partly shown)
2. C[C@H](Oc1nc(-c2cc(C3(C)CCCc4sc(N)c(C#N)c43)sn2)cc(N2CCC[C@@](C)(O)C2)n1)[C@@H]1CCCN1C (stereo partly shown)
3. C[C@H](Oc1nc(-c2noc(C3(C)CCCc4sc(N)c(C#N)c43)n2)cc(N2CCOCC(C)(O)C2)n1)[C@@H]1CCCN1C (stereo partly shown)
4. C[C@H](Oc1nc(-c2noc(C3(C)CCCc4sc(N)c(C#N)c43)n2)cc(N2CCCn3nc(C(=O)N(C)C)cc3C2)n1)[C@@H]1CCCN1C (stereo partly shown)
5. C[C@H](Oc1nc(-c2cc(C3(C)CCCc4sc(N)c(C#N)c43)sn2)cc(N2C[C@@H]3C[C@H](C2)[C@H](O)C3)n1)[C@@H]1CCCN1C (stereo partly shown)

Output line:
1. 34
2. 23
3. 4
4. 669
5. 59
